Test: Inhibition of human recombinant N-myristoyltransferase
Reported Endpoint: IC50 (mM)
Write down the numeric answer in mM and omit the unit.

### Prompt Any idea what IC50 was measured for COc1ccc(C(=S)NNC(=O)c2ccccc2)cc1 ?
### Response 3.2
